Molecular target: PI-3 kinase γ (Homo sapiens, UniProt P48736)
Sequence (P48736 whole entry): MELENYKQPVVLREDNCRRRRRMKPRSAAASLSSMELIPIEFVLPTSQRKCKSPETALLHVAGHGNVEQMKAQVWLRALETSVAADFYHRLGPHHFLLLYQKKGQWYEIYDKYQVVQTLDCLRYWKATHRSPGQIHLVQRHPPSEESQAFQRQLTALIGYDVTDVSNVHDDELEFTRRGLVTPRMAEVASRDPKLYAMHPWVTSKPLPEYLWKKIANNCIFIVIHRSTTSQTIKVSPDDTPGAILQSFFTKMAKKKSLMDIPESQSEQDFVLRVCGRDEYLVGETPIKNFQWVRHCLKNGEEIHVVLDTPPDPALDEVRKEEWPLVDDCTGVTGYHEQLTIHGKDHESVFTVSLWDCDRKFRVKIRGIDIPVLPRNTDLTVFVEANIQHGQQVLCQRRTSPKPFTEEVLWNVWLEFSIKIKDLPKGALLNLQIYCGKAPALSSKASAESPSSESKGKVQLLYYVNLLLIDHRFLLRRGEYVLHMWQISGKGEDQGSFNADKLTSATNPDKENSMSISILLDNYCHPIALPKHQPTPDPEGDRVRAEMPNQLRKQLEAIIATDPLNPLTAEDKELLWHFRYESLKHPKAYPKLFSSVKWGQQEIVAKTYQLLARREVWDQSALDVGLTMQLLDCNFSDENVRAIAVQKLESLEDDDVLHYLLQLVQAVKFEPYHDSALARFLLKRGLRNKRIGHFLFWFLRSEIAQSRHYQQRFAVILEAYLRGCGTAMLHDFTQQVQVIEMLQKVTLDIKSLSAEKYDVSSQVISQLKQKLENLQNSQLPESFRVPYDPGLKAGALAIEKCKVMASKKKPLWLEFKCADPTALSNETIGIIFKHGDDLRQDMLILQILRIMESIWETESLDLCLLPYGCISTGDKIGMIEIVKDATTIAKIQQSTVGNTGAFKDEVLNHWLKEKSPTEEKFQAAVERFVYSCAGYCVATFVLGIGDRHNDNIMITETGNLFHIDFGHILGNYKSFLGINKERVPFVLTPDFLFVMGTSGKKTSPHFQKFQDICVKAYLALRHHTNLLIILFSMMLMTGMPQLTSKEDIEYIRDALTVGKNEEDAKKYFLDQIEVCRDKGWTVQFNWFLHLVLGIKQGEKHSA
Test: PI3Kγ inhibitory activity, PI3-kinase HTRF assay (Millipore)
Type: biochemical
Conditions: 0.5 h; compound 50 μM; read-out: Inhibition ratio % (50 μM)
quantityMeasured: inhibition at 50 µM (%)
# output: bare number, implied unit %

Solved cases below.
Query: For the compound CNC(=O)Nc1cn2nc(-c3cccc(COC)c3)ccc2n1 [Compound I-132] , what inhibition at 50 µM is on record?
Response: 78

Query: For the compound CNC(=O)Nc1cn2nc(-c3ccc(OC)nc3)ccc2n1 [Compound I-148] , what inhibition at 50 µM is on record?
Response: 83

Query: For the compound CCNC(=O)Nc1cn2nc(-c3cccc(OC)c3)ccc2n1 [Compound I-119] , what inhibition at 50 µM is on record?
Response: 96

Query: For the compound CCOC(=O)CCNC(=O)Nc1cn2nc(-c3cccc(OC)c3)ccc2n1 [Compound I-259] , what inhibition at 50 µM is on record?
Response: 68

Query: For the compound COc1cccc(-c2ccc3nc(NC(=O)C4CCN4C(C)(C)C)cn3n2)c1 (stereo not shown) [Compound I-211] , what inhibition at 50 µM is on record?
Response: 61

Next:
Query: For the compound CCCNC(=O)c1ccc2nc(NC(=O)NC)cn2n1 [Compound I-48] , what inhibition at 50 µM is on record?
Response: 83

Query: For the compound CNC(=O)Nc1cn2nc(-c3cccc(-c4ccccc4)c3)ccc2n1 [Compound I-155] , what inhibition at 50 µM is on record?
Response: 57
